Test system: PRMT1 (protein arginine N-methyltransferase 1)
protocol.summary: PRMT1 binders on small-molecule microarrays, primary screen, biochemical, small-molecule microarray, 635 nm fluorescence (AID 1088);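 further: binding of Prmt1 protein to compounds spotted on small-molecule microarray slides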
test.context: small-molecule microarray binding, higher = more signal
result.type: composite z-score

Which composite z-score value belongs to `COc1ccc(COC(=O)NN=C2C[C@@H](O)[C@@H](O)[C@@H]3[C@@H]4C(=O)N(C[C@@H]5CCCO5)C(=O)[C@@H]4CC[C@H]23)cc1` ?
-0.478

Okay, and `O=C1[C@H]2[C@H]3[C@H](O)[C@H](O)CC(=NOC[C@@H](O)COCc4ccco4)[C@@H]3CC[C@H]2C(=O)N1C1CCCCC1` ?
1.39

Okay, and `CC=CC1=C(CO)[C@H](O)[C@H]2O[C@H]2[C@@H]1O` ?
0.028

Okay, and `CON=C(C)CCN1CCCc2nc(C)c(C)cc21` ?
1.43

Origin of the recorded values: PubChem BioAssay
